Answer each item with its documented koff.
target.system: T1, recombinant human HER2 extracellular domain protein (human, UniProt P04626 23-652)
T1 construct: range 23-652; Range is printed for the immunogen/panning protein; also called ErbB2; recombinant HER2 protein
experimental.details: BLI, Protein A capture
Numbers only, in s⁻¹.

INSERT INTO results (binder, measured_metric, units, measured_number) VALUES
  ('Hu2117HK-Mu43 (Fc fusion, name in Kabat numbering, scFv-hIgG1 Fc; not shown: human IgG1 Fc) scFv: EVQLVESGGGLVQPGGSLRLSCAASGFTYSSYGMSWVRQAPGKGLEWVASISGGGSYTKYPDSVKGRFTISRDNSKNTLYLQMNSLRAEDTAVYYCARDYDGFFDVWGQGTLVTVSSGGGGSGGGGSGGGGSDIQMTQSPSSLSASVGDRVTITCRSSQSLVHSNGNTYLHWYQQKPGKAPKLLIYKVSNRFSGVPSRFSGSGSGTDFTLTISSLQPEDFATYFCSQSTHVPYTFGQGTKVEIK', 'koff', 's⁻¹', 0.00406),
  ('Hu2117HK-Mu17 (Fc fusion, name in Kabat numbering, scFv-hIgG1 Fc; not shown: human IgG1 Fc) scFv: EVQLVESGGGLVQPGGSLRLSCAASGFTYSSYGMSWVRQAPGKGLEWVASISGGGSYTKYPDSVKGRFTISRDNSKNTLYLQMNSLRAEDTAVYYCARDYAGFFDVWGQGTLVTVSSGGGGSGGGGSGGGGSDIQMTQSPSSLSASVGDRVTITCRSSQSLVHSIGNTYLHWYQQKPGKAPKLLIYKVSNRFSGVPSRFSGSGSGTDFTLTISSLQPEDFATYFCSQSTHVPYTFGQGTKVEIK', 'koff', 's⁻¹', 0.000738),
  ('Hu2117HK-Mu11 (Fc fusion, scFv-hIgG1 Fc; not shown: human IgG1 Fc) scFv: EVQLVESGGGLVQPGGSLRLSCAASGFTYSSYGMSWVRQAPGKGLEWVASISGGGSYTKYPDSVKGRFTISRDNSKNTLYLQMNSLRAEDTAVYYCARDYAGFFDVWGQGTLVTVSSGGGGSGGGGSGGGGSDIQMTQSPSSLSASVGDRVTITCRSSQSLVHSNGNTYLHWYQQKPGKAPKLLIYKVSNRDSGVPSRFSGSGSGTDFTLTISSLQPEDFATYFCSQSTHVPYTFGQGTKVEIK', 'koff', 's⁻¹', 0.000803);

Parameter requested: koff. Apply to each item below.
1. Hu2117HK-Mu41 (Fc fusion, scFv-hIgG1 Fc; not shown: human IgG1 Fc) scFv: EVQLVESGGGLVQPGGSLRLSCAASGFTYSSYGMSWVRQAPGKGLEWVASISGGGNYAKYPDSVKGRFTISRDNSKNTLYLQMNSLRAEDTAVYYCARDYAGFFDVWGQGTLVTVSSGGGGSGGGGSGGGGSDIQMTQSPSSLSASVGDRVTITCRSSQSLVHSNGNTYLHWYQQKPGKAPKLLIYKVSNRFSGVPSRFSGSGSGTDFTLTISSLQPEDFATYFCSQSTHVPYTFGQGTKVEIK
2. Hu2117HK-Mu36 (Fc fusion, name in Kabat numbering, scFv-hIgG1 Fc; not shown: human IgG1 Fc) scFv: EVQLVESGGGLVQPGGSLRLSCAASGFTYSSYGMSWVRQAPGKGLEWVASISGGGSYTKYPDSVKGRFTISRDNSKNTLYLQMNSLRAEDTAVYYCARDYAGFFDVWGQGTLVTVSSGGGGSGGGGSGGGGSDIQMTQSPSSLSASVGDRVTITCRSSQSLVHSNGNTYLHWYQQKPGKAPKLLIYKVSNRFSGVPSRFSGSGSGTDFTLTISSLQPEDFATYFCMQSTHVPYTFGQGTKVEIK

## Result
[0.000603, 0.00198]
